# measurement.target: UniProt:P33261
# Sequence (P33261 whole entry): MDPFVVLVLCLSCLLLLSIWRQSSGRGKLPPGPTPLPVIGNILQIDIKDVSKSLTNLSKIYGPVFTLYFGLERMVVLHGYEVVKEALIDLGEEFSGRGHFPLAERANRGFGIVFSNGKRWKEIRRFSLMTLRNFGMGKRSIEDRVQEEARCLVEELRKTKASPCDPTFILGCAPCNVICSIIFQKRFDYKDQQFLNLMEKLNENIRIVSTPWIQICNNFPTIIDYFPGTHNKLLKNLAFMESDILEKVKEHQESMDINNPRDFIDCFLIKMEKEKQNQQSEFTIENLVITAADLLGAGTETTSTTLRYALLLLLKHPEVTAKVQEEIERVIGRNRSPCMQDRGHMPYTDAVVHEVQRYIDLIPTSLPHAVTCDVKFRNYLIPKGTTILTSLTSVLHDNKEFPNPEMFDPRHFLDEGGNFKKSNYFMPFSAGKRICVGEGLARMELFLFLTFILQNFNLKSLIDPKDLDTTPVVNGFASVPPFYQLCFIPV
# protocol.notes: Cytochrome panel assay with activity outcomes. Panel member name: p450-cyp2c19 Compounds with AC50 equal or less than 10 uM are considered active
# Assay type: functional
# particulars: read-out: AC50
measurement.kind: AC50

Which AC50 is listed for "Clc1ccc(-c2nnc(-c3ccc(Br)cc3)c(N3CCSCC3)n2)cc1" ?
11.2 µM (inconclusive)

Quick one: AC50 for "O=C(c1ccc([N+](=O)[O-])cc1)n1nc(-c2ccccc2)nc1NCc1ccccc1" ?
1.58 µM (inconclusive)

Which value of AC50 has been reported for "CCOc1nnc(C)c2c(C)n(-c3ccc(Cl)cc3)nc12" in the records?
31.6 µM (inconclusive)

What value of AC50 has been reported for the following molecule? "CCOC(=O)c1ccc(N/C=C/C(=O)c2ccc(OC)cc2)cc1"
2.82 µM (inconclusive)

Which AC50 reading was recorded for the molecule "CCOC(=O)c1cc(NC(=O)c2ccc(C)cc2)c(=O)oc1-c1ccccc1" ?
2.82 µM (inconclusive)

Look at this molecule and give its reported AC50. "Clc1ccc(C(c2ccc(Cl)cc2)[n+]2ccn(C[C@@H](OCc3ccc(Cl)cc3Cl)c3ccc(Cl)cc3Cl)c2)cc1"
25.1 µM (inconclusive)

Any idea what its AC50 is? The molecule is "COc1cc2cc3c(N)c(C(=O)Nc4sc(C)c(C)c4C#N)sc3nc2cc1OC"
15.8 µM (inconclusive)

Quick one: AC50 of "Cn1cccc1C(=O)N1CCC2(CCN(Cc3ccccc3)CC2)CC1" ?
39.8 µM (inconclusive)

Entry "CCCCN(CC)Cc1ccc(CNC(=O)Nc2ccc(OC)cc2OC)o1" has what AC50?
11.2 µM (inconclusive)

Which AC50 reading was recorded for the molecule COc1ccc(C(Cl)=C(c2ccc(OC)cc2)c2ccc(OC)cc2)cc1 [CHLOROTRIANISENE] ?
0.1 µM (inconclusive)
